assay: Hydrogen peroxide release activity in potassium phosphate buffer at pH 7.4 after 60 mins by […] based colorimetric assay; format: physicochemical; details: pH 7.4, 1 h
Observable: Activity

1) O=C1C(NCc2ccccc2)=C(c2ccccc2)C(=O)c2ccccc21 : < 2 µM
2) C=CCNC1=C(c2ccccc2)C(=O)c2ccccc2C1=O : < 2 µM
3) COc1ccccc1C1=C(N2CCCC2)C(=O)c2ccccc2C1=O : Active
4) C1CCNC1 : Not Active
5) NC1=C(c2ccccc2)C(=O)c2ccccc2C1=O : < 2 µM
6) COc1ccc(NC2=C(c3ccccc3)C(=O)c3ccccc3C2=O)cc1 : < 2 µM
7) CCCNC1=C(c2ccccc2)C(=O)c2ccccc2C1=O : < 2 µM
8) O=C1C(Nc2ccc([N+](=O)[O-])cc2)=C(c2ccccc2)C(=O)c2ccccc21 : < 2 µM
9) CN(C)CCNC1=C(c2ccccc2)C(=O)c2ccccc2C1=O : < 2 µM
10) O=C1C(c2ccc(F)cc2)=C(N2CCCC2)C(=O)c2ccccc21 : Active
11) COc1ccc(CNC2=C(c3ccccc3)C(=O)c3ccccc3C2=O)cc1 : < 2 µM
12) CN1CCCC1 : Not Active
13) O=C1C(Nc2ccccc2)=C(c2ccccc2)C(=O)c2ccccc21 : < 2 µM
14) COc1ccc(C2=C(N3CCCC3)C(=O)c3ccccc3C2=O)cc1 : Active
15) O=C1C(NCc2ccc(Cl)cc2)=C(c2ccccc2)C(=O)c2ccccc21 : < 2 µM
16) CCCCNC1=C(c2ccccc2)C(=O)c2ccccc2C1=O : < 2 µM
